Target: T1, Human CD3eg linker (human)
T1 construct: Single-chain construct; also called recombinant human CD3
T1 chain: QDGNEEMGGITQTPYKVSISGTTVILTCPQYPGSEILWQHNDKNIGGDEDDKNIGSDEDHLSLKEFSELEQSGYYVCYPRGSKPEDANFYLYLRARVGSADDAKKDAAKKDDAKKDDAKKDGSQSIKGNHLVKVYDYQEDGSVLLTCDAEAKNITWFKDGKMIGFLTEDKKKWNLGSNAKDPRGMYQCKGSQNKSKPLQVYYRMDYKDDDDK
Experiment: SPR; fold vs parent H183/L072
Yes means recorded fold change of affinity is 1 fold or above; No means it is below 1 fold.

Given the entry H183/L072 VL K50H (antibody, name in Kabat numbering, V domains shown) VH: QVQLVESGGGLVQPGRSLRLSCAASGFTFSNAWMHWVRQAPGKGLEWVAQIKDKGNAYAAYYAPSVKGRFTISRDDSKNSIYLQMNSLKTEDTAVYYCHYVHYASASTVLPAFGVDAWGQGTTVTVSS VL: DIVMTQSPLSLPVTPGEPASISCQASQELVHMNRNTYLHWYQQKPGQAPRLLIYHVSNRFPGVPDRFSGSGSGTDFTLKISRVEAEDVGVYYCAQGTSVPFTFGQGTKLEIK , answer whether its fold change of affinity meets or surpasses 1 fold. No

Given the entry H183/L072 VL T31D (antibody, name in Kabat numbering, V domains shown) VH: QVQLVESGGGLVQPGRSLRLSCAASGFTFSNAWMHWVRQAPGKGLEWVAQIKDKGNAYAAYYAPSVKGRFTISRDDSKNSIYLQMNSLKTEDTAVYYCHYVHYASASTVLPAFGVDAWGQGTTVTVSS VL: DIVMTQSPLSLPVTPGEPASISCQASQELVHMNRNDYLHWYQQKPGQAPRLLIYKVSNRFPGVPDRFSGSGSGTDFTLKISRVEAEDVGVYYCAQGTSVPFTFGQGTKLEIK , answer whether its fold change of affinity meets or surpasses 1 fold. No

Given the entry H183/L072 VL R29G (antibody, name in Kabat numbering, V domains shown) VH: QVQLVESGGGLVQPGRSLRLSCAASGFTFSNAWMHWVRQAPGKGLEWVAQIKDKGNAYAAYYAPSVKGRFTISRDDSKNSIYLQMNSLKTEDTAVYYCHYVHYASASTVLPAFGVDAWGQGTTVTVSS VL: DIVMTQSPLSLPVTPGEPASISCQASQELVHMNGNTYLHWYQQKPGQAPRLLIYKVSNRFPGVPDRFSGSGSGTDFTLKISRVEAEDVGVYYCAQGTSVPFTFGQGTKLEIK , answer whether its fold change of affinity meets or surpasses 1 fold. Yes

Given the entry H183/L072 VL N53S (antibody, name in Kabat numbering, V domains shown) VH: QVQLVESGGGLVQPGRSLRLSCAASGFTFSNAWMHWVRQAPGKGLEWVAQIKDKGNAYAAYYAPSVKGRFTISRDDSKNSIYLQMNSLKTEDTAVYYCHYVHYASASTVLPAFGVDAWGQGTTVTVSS VL: DIVMTQSPLSLPVTPGEPASISCQASQELVHMNRNTYLHWYQQKPGQAPRLLIYKVSSRFPGVPDRFSGSGSGTDFTLKISRVEAEDVGVYYCAQGTSVPFTFGQGTKLEIK , answer whether its fold change of affinity meets or surpasses 1 fold. No

Given the entry H183/L072 VL N28H (antibody, name in Kabat numbering, V domains shown) VH: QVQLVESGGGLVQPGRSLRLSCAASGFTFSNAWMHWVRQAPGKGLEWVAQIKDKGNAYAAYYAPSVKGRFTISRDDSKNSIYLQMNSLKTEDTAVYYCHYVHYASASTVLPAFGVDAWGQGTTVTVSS VL: DIVMTQSPLSLPVTPGEPASISCQASQELVHMHRNTYLHWYQQKPGQAPRLLIYKVSNRFPGVPDRFSGSGSGTDFTLKISRVEAEDVGVYYCAQGTSVPFTFGQGTKLEIK , answer whether its fold change of affinity meets or surpasses 1 fold. No

Given the entry H183/L072 VL N53R (antibody, name in Kabat numbering, V domains shown) VH: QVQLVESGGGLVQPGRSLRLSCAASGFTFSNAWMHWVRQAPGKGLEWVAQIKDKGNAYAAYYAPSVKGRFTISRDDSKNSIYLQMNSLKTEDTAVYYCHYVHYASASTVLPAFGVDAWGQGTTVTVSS VL: DIVMTQSPLSLPVTPGEPASISCQASQELVHMNRNTYLHWYQQKPGQAPRLLIYKVSRRFPGVPDRFSGSGSGTDFTLKISRVEAEDVGVYYCAQGTSVPFTFGQGTKLEIK , answer whether its fold change of affinity meets or surpasses 1 fold. Yes

Given the entry H183/L072 VL H27dD (antibody, name in Kabat numbering, V domains shown) VH: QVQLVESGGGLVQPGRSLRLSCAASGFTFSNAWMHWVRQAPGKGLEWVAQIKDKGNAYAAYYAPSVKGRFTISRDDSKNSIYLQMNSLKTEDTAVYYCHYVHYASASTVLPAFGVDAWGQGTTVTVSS VL: DIVMTQSPLSLPVTPGEPASISCQASQELVDMNRNTYLHWYQQKPGQAPRLLIYKVSNRFPGVPDRFSGSGSGTDFTLKISRVEAEDVGVYYCAQGTSVPFTFGQGTKLEIK , answer whether its fold change of affinity meets or surpasses 1 fold. No

Given the entry H183/L072 VL F55Q (antibody, name in Kabat numbering, V domains shown) VH: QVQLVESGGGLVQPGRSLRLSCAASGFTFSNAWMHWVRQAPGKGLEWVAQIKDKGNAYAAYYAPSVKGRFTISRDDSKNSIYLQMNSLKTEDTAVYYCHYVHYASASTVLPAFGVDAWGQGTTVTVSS VL: DIVMTQSPLSLPVTPGEPASISCQASQELVHMNRNTYLHWYQQKPGQAPRLLIYKVSNRQPGVPDRFSGSGSGTDFTLKISRVEAEDVGVYYCAQGTSVPFTFGQGTKLEIK , answer whether its fold change of affinity meets or surpasses 1 fold. Yes

Given the entry H183/L072 VL K50D (antibody, name in Kabat numbering, V domains shown) VH: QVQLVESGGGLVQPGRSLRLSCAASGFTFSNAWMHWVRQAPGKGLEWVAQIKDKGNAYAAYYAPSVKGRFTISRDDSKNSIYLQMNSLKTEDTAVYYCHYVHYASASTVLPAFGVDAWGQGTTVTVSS VL: DIVMTQSPLSLPVTPGEPASISCQASQELVHMNRNTYLHWYQQKPGQAPRLLIYDVSNRFPGVPDRFSGSGSGTDFTLKISRVEAEDVGVYYCAQGTSVPFTFGQGTKLEIK , answer whether its fold change of affinity meets or surpasses 1 fold. No

Given the entry H183/L072 VL Q24N (antibody, name in Kabat numbering, V domains shown) VH: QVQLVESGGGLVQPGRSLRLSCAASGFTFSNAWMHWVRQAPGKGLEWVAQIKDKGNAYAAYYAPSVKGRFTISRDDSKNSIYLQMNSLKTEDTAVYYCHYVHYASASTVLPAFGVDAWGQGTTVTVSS VL: DIVMTQSPLSLPVTPGEPASISCNASQELVHMNRNTYLHWYQQKPGQAPRLLIYKVSNRFPGVPDRFSGSGSGTDFTLKISRVEAEDVGVYYCAQGTSVPFTFGQGTKLEIK , answer whether its fold change of affinity meets or surpasses 1 fold. Yes
